Consider the following compounds; for each one, report its ED50.
# Test system: Mus musculus
# Method notes: Ability to kill 50% of the animals (administered orally), after sublethal dose of yohimbine (25 mg/Kg) when given subcutaneously.
# Type: functional

In [3]: df
Out[3]:
                                   compound  measurement
0  CCCCCCN(CCCCCC)C(=O)[C@@]1(c2ccccc2)CC1CN.O=C(O)C(=O)O (stereo partly drawn)  > 100 mg/kg
1  CCN(CC)C(=O)[C@]1(c2ccccc2)C[C@@H]1CN.Cl [1R,2S-MILNACIPRAN HYDROCHLORIDE]  > 100 mg/kg

Now turn to the next compound.
Ask | // query ED50 value for entry Cl.NCC1C[C@@]1(C(=O)O)c1ccccc1 (stereo partly drawn)
Reply | > 100 mg/kg
